These measurements were taken from ChEMBL document CHEMBL3822365.

Test system: K562
MEASUREMENT_PROTOCOL: Antiproliferative activity against human K562 cells
Type: functional, cell-based
OBSERVABLE: pIC50
Friendly reminder that pIC50 comes from taking -log10 of the concentration in mol/L.

Ask: Entry C=C1C(=O)[C@]23C[C@H]1CC[C@H]2[C@]1(COC3=O)[C@@H](OC(C)=O)CCC(C)(C)[C@H]1CO , system K562: what pIC50 was measured?
Reply: 5.45

====

Test system: HeLa
MEASUREMENT_PROTOCOL: Cytotoxicity against human HeLa cells assessed as inhibition of cell proliferation after 72 hrs by MTT assay
Assay type: functional, cell-based
Reported IC50 by item:
Answer in µM, number only, no unit symbol.

C[C@H]1C(=O)[C@]23[C@H](O)[C@H]1CC[C@H]2[C@@]12CO[C@@]3(O)[C@@H](O)[C@@H]1C(C)(C)CC[C@@H]2O : 52.7
CCN(CC)c1ccc2cc(C(=O)OCCCCOC(=O)CCCC(=O)O[C@@H]3[C@H]4CC[C@H]5[C@@]67CO[C@@](O)([C@@H](O)[C@@H]6C(C)(C)CC[C@@H]7O)[C@@]35C(=O)[C@@H]4C)c(=O)oc2c1 : 79.6
C=C1C(=O)[C@]23[C@H](O)[C@H]1CC[C@H]2[C@@]12CO[C@]3(O)[C@@H](O)[C@@H]1C(C)(C)CC[C@@H]2O : 17.8
C=C1C(=O)[C@]23[C@H](OC(=O)CCCC(=O)OCCCCOC(=O)c4cc5ccc(N(CC)CC)cc5oc4=O)[C@H]1CC[C@H]2[C@@]12CO[C@@]3(O)[C@@H](O)[C@@H]1C(C)(C)CC[C@@H]2O : 2

// switching to the query compound
Ask: Entry C=C1C(=O)[C@]23[C@H](OC(=O)CCC(=O)OCCOC(=O)Cc4cc(=O)oc5cc(N(C)C)ccc45)[C@H]1CC[C@H]2[C@@]12CO[C@@]3(O)[C@@H](O)[C@@H]1C(C)(C)CC[C@@H]2O , system HeLa: what IC50 was measured?
Reply: 4.6
